Values compiled from PubChem BioAssay (NCATS).

conditions: Ebola virus entry assay, ratio channel
The source made the active and inactive calls. How the calls were made is not given here.
Assign a class; possible classes are active, inactive

Solved entries:
>>> labelvalue("FC(F)(F)C(Cl)Br (centres undefined)")
"inactive"
>>> labelvalue("CCCCCCCCOc1ccccc1C(=O)Nc1ccc(C(=O)OCC[N+](C)(CC)CC)cc1")
"active"
>>> labelvalue("N#Cc1nn(-c2c(Cl)cc(C(F)(F)F)cc2Cl)c(N)c1S(=O)C(F)(F)F (centres undefined)")
"inactive"

Query block: Dear colleague, could you share the recorded outcome for OC(O)C(Cl)(Cl)Cl when you have a moment?
Result block: inactive

Query block: # iterate: Cc1nc2n(c(=O)c1CCN1CCC(C(=O)c3ccc(F)cc3)CC1)CCS2
Result block: inactive

Query block: Consider next the compound COc1nc(C)nc(Cl)c1NC1=NCCN1 in the same way.
Result block: inactive

Query block: Another compound to look at: NC(N)=NC(=O)c1nc(Cl)c(N)nc1N
Result block: inactive

Query block: Ok, now CNC1CCCN(c2c(F)cc3c(=O)c(C(=O)O)cn(C4CC4)c3c2OC)C1 (centres undefined)
Result block: inactive

Query block: Would you mind doing C#C[C@]1(O)C=C[C@H]2[C@@H]3CCC4=CC(=O)CC[C@@H]4[C@H]3CC[C@@]21CC as well?
Result block: inactive

Query block: Now the same for CN1CCCC(n2nc(Cc3ccc(Cl)cc3)c3ccccc3c2=O)CC1 (centres undefined)
Result block: active
